- Test system: U2OS
- Assay method text: Multiplex assay against U2OS
- Type: toxicity, cell-based
- Particulars: human, 24 h, 10 µM, compound concentration 10 uM, replicate 1
Label rule met for high-side Population Apoptotic (%) (at or above 80%) and rule not met for low-side Population Apoptotic (%) (below it).

>  <Compound>
Cc1cc(-c2ccc3c(c2)CC[C@H]3N2CC3(CCN(C(=O)Cc4cn5cc(C)sc5n4)CC3)C2)ncn1

>  <Group label>
rule not met

$$$$
>  <Compound>
CN1C[C@H](C(=O)N[C@]2(C)O[C@@]3(O)[C@@H]4CCCN4C(=O)[C@H](Cc4ccccc4)N3C2=O)C[C@@H]2c3cccc4[nH]cc(c34)C[C@H]21.CS(=O)(=O)O [DIHYDROERGOTAMINE MESYLATE]

>  <Group label>
rule met

$$$$
>  <Compound>
CCC(=O)OCC(=O)[C@@]1(OC(=O)CC)[C@@H](C)C[C@H]2[C@@H]3CCC4=CC(=O)C=C[C@]4(C)[C@@]3(Cl)[C@@H](O)C[C@@]21C [BECLOMETHASONE DIPROPIONATE]

>  <Group label>
rule not met

$$$$
>  <Compound>
Cc1sc2c(c1C)C(c1ccc(Cl)cc1)=N[C@H](CC(=O)OC(C)(C)C)c1nnc(C)n1-2

>  <Group label>
rule met

$$$$
>  <Compound>
COc1c(Nc2ccc(S(C)(=O)=O)nc2C)ncnc1OC1CCN(C(=O)OC(C)C)CC1

>  <Group label>
rule met

$$$$
>  <Compound>
O=c1ccc2ccc(OCCCCN3CCN(c4cccc5sccc45)CC3)cc2[nH]1

>  <Group label>
rule met

$$$$

----------
Attribute: Total Cell Count
- Tested on: U2OS
- Assay method text: Multiplex assay against U2OS
- Type: toxicity, cell-based
- Particulars: human, 24 h, 1 µM, compound concentration 1 uM, replicate 2
Non-standard residues stand in square brackets, D forms with d. Residues, ends and D or L forms follow the SMILES beside them.

>  <Compound>
COCCCN1CCC(NC(=O)c2cc(Cl)c(N)c3c2OCC3)CC1 [PRUCALOPRIDE]

>  <Total Cell Count>
132

$$$$
>  <Compound>
O=C(NCCNCC(O)COc1ccc(O)cc1)N1CCOCC1.O=C(NCCNCC(O)COc1ccc(O)cc1)N1CCOCC1.O=C(O)/C=C/C(=O)O (stereo unspecified) [XAMOTEROL FUMARATE]

>  <Total Cell Count>
129

$$$$
>  <Compound>
CCCCC[C@H](O)/C=C/[C@H]1[C@H](O)CC(=O)[C@@H]1CCCCCCC(=O)O

>  <Total Cell Count>
166

$$$$
>  <Compound>
COc1ccc2c(c1OCc1ccccc1)C[C@@H](C(=O)O)N(C(=O)C(c1ccccc1)c1ccccc1)C2

>  <Total Cell Count>
143

$$$$
>  <Compound>
CC(C)C[C@@H]1NC(=O)[C@@H](C(C)C)NC(=O)[C@@H]2CCCN2C(=O)[C@@H](CC(=O)O)NC(=O)[C@@H](Cc2c[nH]c3ccccc23)NC1=O [BQ-123] (cyclo(L[dW][dD]P[dV]))

>  <Total Cell Count>
137

$$$$
>  <Compound>
COCCn1c(C)c(C)s/c1=N\C(=O)C1C(C)(C)C1(C)C

>  <Total Cell Count>
157

$$$$

----------
- Test system: U2OS
- Assay method text: Multiplex assay against U2OS
- Format: toxicity, cell-based
- Particulars: human, 12 h, 10 µM, compound concentration 10 uM, replicate 2

>  <Compound>
S=C(NCCCc1c[nH]cn1)NCCCN(Cc1ccc(Cl)c(Cl)c1)c1ccc(Br)cn1

>  <System tested>
U2OS

>  <Population Fragmented Nuclei (%)>
24%

$$$$
>  <Compound>
COc1ccc2c(c1OCc1ccccc1)C[C@@H](C(=O)O)N(C(=O)C(c1ccccc1)c1ccccc1)C2

>  <System tested>
U2OS

>  <Population Fragmented Nuclei (%)>
26%

$$$$
>  <Compound>
CN1CCN(c2ccc(Nc3c4ccccc4nc4ccccc34)cc2)CC1.Cl.Cl.O

>  <System tested>
U2OS

>  <Population Fragmented Nuclei (%)>
62%

$$$$
>  <Compound>
CCC(=O)OCC(=O)[C@@]1(OC(=O)CC)[C@@H](C)C[C@H]2[C@@H]3CCC4=CC(=O)C=C[C@]4(C)[C@@]3(Cl)[C@@H](O)C[C@@]21C [BECLOMETHASONE DIPROPIONATE]

>  <System tested>
U2OS

>  <Population Fragmented Nuclei (%)>
12%

$$$$
>  <Compound>
CN(C)C(=O)Cn1cc(-c2ccc(-c3nnc4ccccn34)cc2)cn1

>  <System tested>
U2OS

>  <Population Fragmented Nuclei (%)>
11%

$$$$
>  <Compound>
O=C(NCCNCC(O)COc1ccc(O)cc1)N1CCOCC1.O=C(NCCNCC(O)COc1ccc(O)cc1)N1CCOCC1.O=C(O)/C=C/C(=O)O (stereo not given) [XAMOTEROL FUMARATE]

>  <System tested>
U2OS

>  <Population Fragmented Nuclei (%)>
15%

$$$$
>  <Compound>
COCCCN1CCC(NC(=O)c2cc(Cl)c(N)c3c2OCC3)CC1 [PRUCALOPRIDE]

>  <System tested>
U2OS

>  <Population Fragmented Nuclei (%)>
13%

$$$$
>  <Compound>
COc1cc(C(=O)N2CC[C@@H](O)[C@@H](N)C2)cc2nc(-c3cc4ccccc4n3CC3CC3)n(C)c12.Cl

>  <System tested>
U2OS

>  <Population Fragmented Nuclei (%)>
16%

$$$$
>  <Compound>
CC(C)(O)C(=O)N1CCN(c2ccc(C(F)(F)F)c(C3=C(c4c[nH]c5ccccc45)C(=O)NC3=O)c2)CC1

>  <System tested>
U2OS

>  <Population Fragmented Nuclei (%)>
6%

$$$$
>  <Compound>
CCCCCCNC(=O)Nc1ccc(S(=O)(=O)Nc2ccc(CCNC[C@H](O)COc3ccc(O)cc3)cc2)cc1

>  <System tested>
U2OS

>  <Population Fragmented Nuclei (%)>
19%

$$$$

----------
- Tested on: Fibroblast
- Assay method text: Multiplex assay against human fibroblast
- Type: toxicity, cell-based
- Particulars: 12 h, 10 µM, compound concentration 10 uM, replicate 2
Attribute: Population Pyknosed Nuclei (%)

>  <Compound>
CCn1c(-c2nc3cc(C(=O)N4CCCC(N)C4)ccc3n2C)cc2ccccc21.Cl (stereo not drawn)

>  <System tested>
Fibroblast

>  <Population Pyknosed Nuclei (%)>
29

$$$$
>  <Compound>
S=C(NCCCc1c[nH]cn1)NCCCN(Cc1ccc(Cl)c(Cl)c1)c1ccc(Br)cn1

>  <System tested>
Fibroblast

>  <Population Pyknosed Nuclei (%)>
12

$$$$
>  <Compound>
CC(F)(F)CN1CCOc2c(nn(-c3ccccc3Cl)c2-c2ccc(Cl)cc2)C1=O

>  <System tested>
Fibroblast

>  <Population Pyknosed Nuclei (%)>
15

$$$$

----------
- Tested on: HEK-293T
- Assay method text: Multiplex assay against HEK293T
- Type: toxicity, cell-based
- Particulars: human, 12 h, 1 µM, compound concentration 1 uM, replicate 1
Attribute: Population Healthy Nuclei (%)

>  <Compound>
C[C@H](NC(=O)CNC(=O)c1cccc(Cl)c1)c1ccccc1

>  <Population Healthy Nuclei (%)>
79

$$$$
>  <Compound>
Cl.Cl.OCCOCCN1CCN(C(c2ccccc2)c2ccc(Cl)cc2)CC1 (stereo unspecified) [HYDROXYZINE HYDROCHLORIDE]

>  <Population Healthy Nuclei (%)>
79

$$$$
>  <Compound>
CN1CCC(C(=O)c2cccc(NC(=O)c3c(F)cc(F)cc3F)n2)CC1

>  <Population Healthy Nuclei (%)>
82

$$$$
>  <Compound>
CN1CCN(c2ccc(Nc3c4ccccc4nc4ccccc34)cc2)CC1.Cl.Cl.O

>  <Population Healthy Nuclei (%)>
81

$$$$
>  <Compound>
CN1CCN2c3ccccc3Cc3ccccc3C2C1.Cl (stereo unspecified) [MIANSERIN HYDROCHLORIDE]

>  <Population Healthy Nuclei (%)>
79

$$$$
>  <Compound>
S=C(NCCCc1c[nH]cn1)NCCCN(Cc1ccc(Cl)c(Cl)c1)c1ccc(Br)cn1

>  <Population Healthy Nuclei (%)>
78

$$$$

----------
- Test system: Fibroblast
- Assay method text: Multiplex assay against human fibroblast
- Assay type: toxicity, cell-based
- Particulars: 12 h, 1 µM, compound concentration 1 uM, replicate 2
Observable: Population Membrane Permeable-Phenotype (%)

>  <Compound>
CSc1nc(NC2CCCC2)c([N+](=O)[O-])c(NC2CCCC2)n1

>  <System tested>
Fibroblast

>  <Measurement unit>
%

>  <Reported measurement>
10

$$$$
>  <Compound>
CCC(=O)OCC(=O)[C@@]1(OC(=O)CC)[C@@H](C)C[C@H]2[C@@H]3CCC4=CC(=O)C=C[C@]4(C)[C@@]3(Cl)[C@@H](O)C[C@@]21C [BECLOMETHASONE DIPROPIONATE]

>  <System tested>
Fibroblast

>  <Measurement unit>
%

>  <Reported measurement>
5

$$$$
>  <Compound>
COc1cc(Nc2ncc3c(n2)-c2ccc(Cl)cc2C(c2c(F)cccc2OC)=NC3)ccc1C(=O)O

>  <System tested>
Fibroblast

>  <Measurement unit>
%

>  <Reported measurement>
7

$$$$
>  <Compound>
CN(C)C/C=C/C(=O)Nc1ccc(C(=O)N2CCCC(Nc3ncc(Cl)c(-c4c[nH]c5ccccc45)n3)C2)cc1 (centres undefined)

>  <System tested>
Fibroblast

>  <Measurement unit>
%

>  <Reported measurement>
3

$$$$
>  <Compound>
COc1ccc2[nH]c(I)c(CCNC(C)=O)c2c1

>  <System tested>
Fibroblast

>  <Measurement unit>
%

>  <Reported measurement>
7

$$$$
>  <Compound>
Cn1cc(C(=O)OCC2CCN(CCNS(C)(=O)=O)CC2)c2ccccc21

>  <System tested>
Fibroblast

>  <Measurement unit>
%

>  <Reported measurement>
9

$$$$
>  <Compound>
Cc1cc(NC(=O)NCCN2CCC(O)(Cc3ccccc3)CC2)c2ccccc2n1

>  <System tested>
Fibroblast

>  <Measurement unit>
%

>  <Reported measurement>
1

$$$$
>  <Compound>
C=CCN1C[C@H](C(=O)N(CCCN(C)C)C(=O)NCC)C[C@@H]2c3cccc4[nH]cc(c34)C[C@H]21

>  <System tested>
Fibroblast

>  <Measurement unit>
%

>  <Reported measurement>
4

$$$$
>  <Compound>
OCCCNc1cc(-c2ccnc(Nc3cccc(Cl)c3)n2)ccn1

>  <System tested>
Fibroblast

>  <Measurement unit>
%

>  <Reported measurement>
5

$$$$
>  <Compound>
Cc1ccc(OCC(O)C(C)NC(C)C)c2c1CCC2.Cl (centres undefined)

>  <System tested>
Fibroblast

>  <Measurement unit>
%

>  <Reported measurement>
4

$$$$
>  <Compound>
CN1CCN(c2ccc(Nc3c4ccccc4nc4ccccc34)cc2)CC1.Cl.Cl.O

>  <System tested>
Fibroblast

>  <Measurement unit>
%

>  <Reported measurement>
5

$$$$
>  <Compound>
Cc1cc(-c2ccc3c(c2)CC[C@H]3N2CC3(CCN(C(=O)Cc4cn5cc(C)sc5n4)CC3)C2)ncn1

>  <System tested>
Fibroblast

>  <Measurement unit>
%

>  <Reported measurement>
9

$$$$
>  <Compound>
S=C(NCCCc1c[nH]cn1)NCCCN(Cc1ccc(Cl)c(Cl)c1)c1ccc(Br)cn1

>  <System tested>
Fibroblast

>  <Measurement unit>
%

>  <Reported measurement>
5

$$$$
>  <Compound>
Nc1nc(CC(=O)Nc2ccc(CCNC[C@H](O)c3ccccc3)cc2)cs1

>  <System tested>
Fibroblast

>  <Measurement unit>
%

>  <Reported measurement>
9

$$$$
>  <Compound>
COc1cc2nc(N3CCN(C(=O)COc4c(OC)cccc4C(C)C)CC3)nc(N)c2cc1OC.Cl.Cl

>  <System tested>
Fibroblast

>  <Measurement unit>
%

>  <Reported measurement>
5

$$$$
>  <Compound>
Cc1cc(O)c(-c2ccc([C@@H](C)CN(C)C)cc2)c2c1[nH]c(=O)c1sccc12

>  <System tested>
Fibroblast

>  <Measurement unit>
%

>  <Reported measurement>
4

$$$$
>  <Compound>
O=C(NCCNCC(O)COc1ccc(O)cc1)N1CCOCC1.O=C(NCCNCC(O)COc1ccc(O)cc1)N1CCOCC1.O=C(O)/C=C/C(=O)O (centres undefined) [XAMOTEROL FUMARATE]

>  <System tested>
Fibroblast

>  <Measurement unit>
%

>  <Reported measurement>
16

$$$$
>  <Compound>
Nc1nc(-c2ccco2)c2cnn(Cc3ccccc3F)c2n1

>  <System tested>
Fibroblast

>  <Measurement unit>
%

>  <Reported measurement>
2

$$$$
>  <Compound>
C[C@@H]1CC(=O)Nc2cccc(-c3ccc4c(c3)c(-c3cnn(C)c3)nn4C)c2N1

>  <System tested>
Fibroblast

>  <Measurement unit>
%

>  <Reported measurement>
8

$$$$
>  <Compound>
CN(C)C(=O)Cn1cc(-c2ccc(-c3nnc4ccccn34)cc2)cn1

>  <System tested>
Fibroblast

>  <Measurement unit>
%

>  <Reported measurement>
7

$$$$
>  <Compound>
COc1cc(OC2CCN(C(C)=O)CC2)ccc1C(=O)N1CCC(N2C(=O)OCc3ccccc32)CC1

>  <System tested>
Fibroblast

>  <Measurement unit>
%

>  <Reported measurement>
0

$$$$
>  <Compound>
O=c1ccc2ccc(OCCCCN3CCN(c4cccc5sccc45)CC3)cc2[nH]1

>  <System tested>
Fibroblast

>  <Measurement unit>
%

>  <Reported measurement>
2

$$$$
>  <Compound>
Cc1cc(=O)n(C)c2cc(N3C(=O)CC[C@H](NS(=O)(=O)CC(C)C)[C@H]3c3ccc(Cl)cc3)ccc12

>  <System tested>
Fibroblast

>  <Measurement unit>
%

>  <Reported measurement>
8

$$$$
>  <Compound>
COc1c(Nc2ccc(S(C)(=O)=O)nc2C)ncnc1OC1CCN(C(=O)OC(C)C)CC1

>  <System tested>
Fibroblast

>  <Measurement unit>
%

>  <Reported measurement>
2

$$$$
